# target_or_test_system: human erythrocyte plasma membrane Ca^2+ -ATPase (Homo sapiens, UniProt P23634)
# Construct: Calmodulin-depleted erythrocyte membranes were prepared by continuous filtration through a hollow fibre; tissue New South Wales Red Cross Transfusion Service, Sydney; host or cells: human packed red blood cells (calmodulin-depleted erythrocyte membranes)
# Sequence (P23634 1-1205 isoform P23634-6): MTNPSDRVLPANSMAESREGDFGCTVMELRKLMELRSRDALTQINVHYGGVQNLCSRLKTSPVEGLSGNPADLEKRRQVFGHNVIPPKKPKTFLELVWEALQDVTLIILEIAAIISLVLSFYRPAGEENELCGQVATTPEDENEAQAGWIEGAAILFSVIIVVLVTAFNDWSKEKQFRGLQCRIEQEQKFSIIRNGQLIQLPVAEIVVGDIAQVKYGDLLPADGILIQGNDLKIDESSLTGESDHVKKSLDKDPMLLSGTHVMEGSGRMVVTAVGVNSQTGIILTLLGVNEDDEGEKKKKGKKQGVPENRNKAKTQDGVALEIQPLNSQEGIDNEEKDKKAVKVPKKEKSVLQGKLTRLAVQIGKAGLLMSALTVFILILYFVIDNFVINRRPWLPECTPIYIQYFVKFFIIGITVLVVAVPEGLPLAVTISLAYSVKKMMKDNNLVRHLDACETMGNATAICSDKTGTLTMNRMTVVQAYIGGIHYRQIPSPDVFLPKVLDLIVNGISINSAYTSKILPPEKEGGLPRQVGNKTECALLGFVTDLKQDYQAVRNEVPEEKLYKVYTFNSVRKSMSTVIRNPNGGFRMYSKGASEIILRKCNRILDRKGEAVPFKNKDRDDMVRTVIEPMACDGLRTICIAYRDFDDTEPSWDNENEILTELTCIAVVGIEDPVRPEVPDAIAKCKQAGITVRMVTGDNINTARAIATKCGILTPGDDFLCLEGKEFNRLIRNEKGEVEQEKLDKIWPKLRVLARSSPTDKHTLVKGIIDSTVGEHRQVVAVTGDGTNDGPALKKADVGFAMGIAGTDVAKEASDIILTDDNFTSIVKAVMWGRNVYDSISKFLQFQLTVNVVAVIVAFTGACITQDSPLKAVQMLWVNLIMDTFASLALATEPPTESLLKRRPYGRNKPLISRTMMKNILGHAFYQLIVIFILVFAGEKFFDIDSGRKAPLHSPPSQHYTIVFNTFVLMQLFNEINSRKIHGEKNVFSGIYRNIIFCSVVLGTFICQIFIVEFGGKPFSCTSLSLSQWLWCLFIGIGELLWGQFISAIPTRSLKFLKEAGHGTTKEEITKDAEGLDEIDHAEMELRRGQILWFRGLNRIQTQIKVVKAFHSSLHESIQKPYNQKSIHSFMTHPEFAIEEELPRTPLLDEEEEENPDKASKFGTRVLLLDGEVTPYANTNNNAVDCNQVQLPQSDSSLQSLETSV
# Sequence (P35613 140-385 partner limits assumed): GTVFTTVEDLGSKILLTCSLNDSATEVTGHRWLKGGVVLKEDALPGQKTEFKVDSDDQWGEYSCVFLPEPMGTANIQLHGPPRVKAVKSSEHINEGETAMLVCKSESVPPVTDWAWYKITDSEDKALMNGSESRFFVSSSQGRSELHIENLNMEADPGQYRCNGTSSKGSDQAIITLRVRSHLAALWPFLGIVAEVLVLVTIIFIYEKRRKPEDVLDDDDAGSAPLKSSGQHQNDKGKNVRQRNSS
# assay_overview: Ca^2+ -ATPase assay (erythrocyte membranes; Table 1)
# Type: biochemical
# condition_description: at 100 μM; read-out: INHIBITION OF Ca^2+ -ATPase PERCENT (%)
Record TRUE whenever inhibition at 100 µM is at 70% or higher; record FALSE when lower.

Completed entries (count: 3):
>  <compound>
CCCCCCCCCCCCCc1cc(O)cc(O)c1

>  <group>
FALSE

$$$$
>  <compound>
CCCCCCCCC(=O)c1ccccc1O

>  <group>
FALSE

$$$$
>  <compound>
CCCCCCCCCCc1cc(O)cc(O)c1

>  <group>
FALSE

$$$$

Evaluate `Oc1ccc(CCCCCCCCCCCCc2ccccc2O)cc1` : inhibition at 100 µM at minimum 70%?
TRUE

Evaluate CCCCCCCCCc1cc(O)cc(O)c1C(=O)OCC [ethyl 2,4-dihydroxy-6-nonylbenzoate] : inhibition at 100 µM at minimum 70%?
TRUE

Evaluate `CCCCCCCCCCc1c(Br)c(O)c(Br)c(O)c1C(=O)OCC` : inhibition at 100 µM at minimum 70%?
TRUE

Evaluate CCCCCCc1ccc(O)cc1O [4-hexylresorcinol, reference compound] : inhibition at 100 µM at minimum 70%?
FALSE

Evaluate `Oc1ccc(CCCCCCCCCCCCCCc2ccccc2O)cc1` : inhibition at 100 µM at minimum 70%?
FALSE

Evaluate Oc1ccc(CCCCCCCCCCc2ccc(O)cc2)cc1 [1,10-bis(4-hydroxyphenyl)decane] : inhibition at 100 µM at minimum 70%?
FALSE
